test system: Veronica persica (VERPE); assay: Post-emergence herbicidal action, greenhouse pot test; type: in vivo; conditions: Veronica persica, 504 h, 1.25 g/ha, read-out: Post-emergence action against VERPE
READOUT TYPE: pest or weed control at 1.25 g/ha

>>> assay_result("Cn1c(C(F)(F)F)cc(=O)n(-c2cc(Oc3ccccc3OCC(=O)OCC#N)c(C#N)cc2F)c1=O")
"100%"
>>> assay_result("Cn1c(C(F)(F)F)cc(=O)n(-c2cc(Oc3ccccc3OCC(=O)OCC#N)c([N+](=O)[O-])cc2F)c1=O")
"80%"
>>> assay_result("Cn1c(C(F)(F)F)cc(=O)n(-c2cc(Oc3ccccc3OCC(=O)OCc3ccccn3)c(Cl)cc2F)c1=O")
"100%"
>>> assay_result("COCC(C)OC(=O)COc1ccccc1Oc1cc(-n2c(=O)cc(C(F)(F)F)n(C)c2=O)c(F)cc1Cl (stereo not shown)")
"100%"

----------
tested on: Polygonum convolvulus (POLCO); test: Post-emergence herbicidal action, greenhouse pot test; assay type: in vivo; conditions: Fallopia convolvulus, 504 h, dosage 20 g/ha, read-out: Post-emergence action against POLCO in %
Listed below: pest or weed control at 20 g/ha values for each entry.
READOUT TYPE: pest or weed control at 20 g/ha (%)

>>> assay_result("Cn1c(C(F)(F)F)cc(=O)n(-c2cc(Oc3ccccc3OCC(=O)OCC#N)c(Cl)cc2F)c1=O [I.7-176]")
100
>>> assay_result("COCCOC(=O)COc1ccccc1Oc1cc(-n2c(=O)cc(C(F)(F)F)n(C)c2=O)c(F)cc1Cl [I.7-1]")
100
>>> assay_result("Cn1c(C(F)(F)F)cc(=O)n(-c2cc(Oc3ccccc3OCC(=O)OCC#N)c(C#N)cc2F)c1=O [I.9-176]")
100

----------
test system: Oryza sativa (ORYSA); assay: Post-emergence crop plant compatibility, greenhouse pot test (also comparative test C); assay type: in vivo; conditions: 1.25 g/ha, vs untreated controls
Property: Post-emergence action against ORYSA (crop plant compatibility); scope: individual compounds
READOUT TYPE: Post-emergence action against ORYSA (crop plant compatibility) (%)

>>> assay_result("COCCOCCOC(=O)C(C)Oc1ccccc1Sc1cc(-n2c(=O)cc(C(F)(F)F)n(C)c2=O)c(F)cc1Cl (racemic) [I.2-23]")
10
>>> assay_result("COCCOC(=O)COc1ccccc1Oc1cc(-n2c(=O)cc(C(F)(F)F)n(C)c2=O)c(F)cc1[N+](=O)[O-] [I.6-1]")
0
>>> assay_result("Cn1c(C(F)(F)F)cc(=O)n(-c2cc(Oc3ccccc3OCC(=O)OCCOC(F)(F)F)c(Cl)cc2F)c1=O [I.7-41]")
0
>>> assay_result("Cn1c(C(F)(F)F)cc(=O)n(-c2cc(Oc3ccccc3OCC(=O)OCc3cccnc3)c(Cl)cc2F)c1=O [I.7-277]")
0
>>> assay_result("CCOCCOC(=O)COc1ccccc1Oc1cc(-n2c(=O)cc(C(F)(F)F)n(C)c2=O)c(F)cc1Br [I.8-2]")
0
>>> assay_result("COCCOCCOC(=O)COc1ccccc1Oc1cc(-n2c(=O)cc(C(F)(F)F)n(C)c2=O)c(F)cc1Br [I.8-23]")
0
>>> assay_result("CCOCCOC(=O)COc1ccccc1Oc1cc(-n2c(=O)cc(C(F)(F)F)n(C)c2=O)c(F)cc1Cl [I.7-2]")
0
>>> assay_result("Cn1c(C(F)(F)F)cc(=O)n(-c2cc(Oc3c(F)cccc3OCC(=O)OCc3ccccn3)c(Cl)cc2F)c1=O [I.19-276]")
0
>>> assay_result("Cn1c(C(F)(F)F)cc(=O)n(-c2cc(Oc3ccccc3OCC(=O)OCC#N)c([N+](=O)[O-])cc2F)c1=O [I.6-176]")
0
>>> assay_result("Cn1c(C(F)(F)F)cc(=O)n(-c2cc(Oc3c(F)cccc3OCC(=O)OCC#N)c(Cl)cc2F)c1=O [I.19-176]")
0
>>> assay_result("COCCOC(=O)COc1ccccc1Sc1cc(-n2c(=O)cc(C(F)(F)F)n(C)c2=O)c(F)cc1Cl [I.1-1]")
10
>>> assay_result("CCOCCOC(=O)C(C)Oc1ccccc1Sc1cc(-n2c(=O)cc(C(F)(F)F)n(C)c2=O)c(F)cc1Cl (racemic) [I.2-2]")
10
>>> assay_result("Cn1c(C(F)(F)F)cc(=O)n(-c2cc(Oc3ccccc3OCC(=O)OCC#N)c(Br)cc2F)c1=O [I.8-176]")
0
>>> assay_result("Cn1c(C(F)(F)F)cc(=O)n(-c2cc(Oc3ccccc3OCC(=O)OCC3CCOC3)c(Cl)cc2F)c1=O (centres unmarked) [I.7-72]")
0
>>> assay_result("CC(Oc1ccccc1Sc1cc(-n2c(=O)cc(C(F)(F)F)n(C)c2=O)c(F)cc1Cl)C(=O)OCC1CCCO1 (mixture of isomers) [I.2-71]")
20
>>> assay_result("CC(Oc1ccccc1Sc1cc(-n2c(=O)cc(C(F)(F)F)n(C)c2=O)c(F)cc1Cl)C(=O)OCCO (racemic) [I.2-58]")
10
>>> assay_result("Cn1c(C(F)(F)F)cc(=O)n(-c2cc(Oc3ccccc3OCC(=O)OCC#N)c(C#N)cc2F)c1=O [I.9-176]")
0
>>> assay_result("COCCOCCOC(=O)COc1ccccc1Sc1cc(-n2c(=O)cc(C(F)(F)F)n(C)c2=O)c(F)cc1Cl [I.1-23]")
20
>>> assay_result("COCCOCCOC(=O)COc1ccccc1Oc1cc(-n2c(=O)cc(C(F)(F)F)n(C)c2=O)c(F)cc1[N+](=O)[O-] [I.6-23]")
0
>>> assay_result("CCOCCOC(=O)COc1ccccc1Oc1cc(-n2c(=O)cc(C(F)(F)F)n(C)c2=O)c(F)cc1[N+](=O)[O-] [I.6-2]")
0
